Species: Bos taurus
method description: Displacement of [3H]colchicine from bovine tubulin at 5 uM by DEAE-cellulose filter method
Kindly return True if reported inhibition is no lower than 50%; return False if it is lower.

Some entries whose results are on file:
Ask | Identify whether the reported inhibition of the following molecule is 50% or greater: `COc1ccc(-n2nnnc2-c2cc(OC)c(OC)c(OC)c2)cc1`
Reply | True

Ask | Identify whether the reported inhibition of the following molecule is 50% or greater: `CCc1ccc(-c2nnnn2-c2cc(OC)c(OC)c(OC)c2)cc1`
Reply | False

Ask | Identify whether the reported inhibition of the following molecule is 50% or greater: `COc1ccc(-c2nnnn2-c2cc(OC)c(OC)c(OC)c2)cc1F`
Reply | True

---
Ask | Identify whether the reported inhibition of the following molecule is 50% or greater: `CCOc1ccc(-c2nnnn2-c2cc(OC)c(OC)c(OC)c2)cc1`
Reply | True

---

Measured inhibition by item
Species on record: Bos taurus
method description: Displacement of [3H]colchicine from bovine tubulin at 5 uM by DEAE-cellulose filter method
Give just the number in %; leave the unit off.

Ask | Recorded inhibition of `CCOc1ccc(-c2nnnn2-c2cc(OC)c(OC)c(OC)c2)cc1Cl` , please.
Reply | 58

Ask | Recorded inhibition of `CCOc1ccc(-c2ncnn2-c2cc(OC)c(OC)c(OC)c2)cc1` , please.
Reply | 86

Ask | Recorded inhibition of `COc1ccc(-c2nnnn2-c2cc(OC)c(OC)c(OC)c2)cc1` , please.
Reply | 54

Ask | Recorded inhibition of `CCOc1ccc(-n2nnnc2-c2cc(OC)c(OC)c(OC)c2)cc1` , please.
Reply | 71

Ask | Recorded inhibition of `COc1ccc(-c2nnnn2-c2cc(OC)c(OC)c(OC)c2)cc1C` , please.
Reply | 59

---
Ask | Recorded inhibition of `CCCOc1ccc(-c2nnnn2-c2cc(OC)c(OC)c(OC)c2)cc1` , please.
Reply | 46

---

Test system: MCF7
method description: Cytotoxicity against human MCF7 cells after 72 hrs by MTT assay
Assay type: functional, cell-based
experimental conditions: MCF7, 72 h
Measured IC50 by item
Give just the number in nM; leave the unit off.

Here's what some known entries look like.
Ask | Recorded IC50 of `COc1cc(-n2nnnc2-c2ccc(C)cc2)cc(OC)c1OC` , please.
Reply | 1780

Ask | Recorded IC50 of `COc1ccc(-n2nnnc2-c2cc(OC)c(OC)c(OC)c2)cc1` , please.
Reply | 27.1

Ask | Recorded IC50 of `COc1ccc(-c2nnnn2-c2cc(OC)c(OC)c(OC)c2)cc1F` , please.
Reply | 29.7

Ask | Recorded IC50 of `COc1ccc(-c2nnnn2-c2cc(OC)c(OC)c(OC)c2)cc1Cl` , please.
Reply | 25.2

Ask | Recorded IC50 of `COc1ccc(-c2nnnn2-c2cc(OC)c(OC)c(OC)c2)cc1OC` , please.
Reply | 2720

Ask | Recorded IC50 of `COc1ccc(-c2nnnn2-c2cc(OC)c(OC)c(OC)c2)cc1` , please.
Reply | 38.5

---
Ask | Recorded IC50 of `COc1ccc(-c2nnnn2-c2cc(OC)c(OC)c(OC)c2)cc1C` , please.
Reply | 15.4

Ask | Recorded IC50 of `CCc1ccc(-c2nnnn2-c2cc(OC)c(OC)c(OC)c2)cc1` , please.
Reply | 12.6

Ask | Recorded IC50 of `CCOc1ccc(-n2nnnc2-c2cc(OC)c(OC)c(OC)c2)cc1` , please.
Reply | 2.8

Ask | Recorded IC50 of `CCOc1ccc(-c2nnnn2-c2cc(OC)c(OC)c(OC)c2)cc1Cl` , please.
Reply | 1.8

Ask | Recorded IC50 of `CCOc1ccc(-c2nnnn2-c2cc(OC)c(OC)c(OC)c2)cc1` , please.
Reply | 2.3

Ask | Recorded IC50 of `CCCOc1ccc(-c2nnnn2-c2cc(OC)c(OC)c(OC)c2)cc1` , please.
Reply | 66.2
